biological target: Prostaglandin G/H synthase 1 (Ovis aries); conditions: at 1 mM
Description: Inhibition of ovine COX1 at 1 mM by colorimetric assay
inhibition of 20% or higher: class 1. Under 20%: class 0.

>>> label_value("COc1cc(OC)c(C(=O)/C=C/c2cccc(Cl)c2)c(O)c1CN1CCN(C)CC1")
"class 1"
>>> label_value("COc1cc(OC)c(C(=O)/C=C/c2cccc(Br)c2)c(O)c1CN1CCCCC1")
"class 1"
>>> label_value("COc1cc(OC)c(C(=O)/C=C/c2cccc(Cl)c2)c(O)c1CN1CCCCC1")
"class 1"
>>> label_value("COc1cc(OC)c(C(=O)/C=C/c2ccccc2Cl)c(O)c1CN1CCCCC1")
"class 1"
>>> label_value("COc1cc(OC)c(C(=O)/C=C/c2ccccc2Cl)c(O)c1CN1CCN(C)CC1")
"class 0"
>>> label_value("COc1cc(OC)c(C(=O)/C=C/c2ccccc2F)c(O)c1CN1CCN(C)CC1")
"class 0"
